# PROTOCOL DESCRIPTION: yeast display, Sf9 membrane polyspecificity reagent, FACS + sequencing; frameworks hold sequencing errors
OBSERVED PROPERTY: polyreactivity (PSR sort gate)

>  <ENTRY SEQUENCE>
QVQLVESRGGLVQAGGSLRLSCPDSGSNLLSYAMGWYRQAPGKERELVAAITTRDGSTYYADSVKGRFTISRDNAKYTVYLQMTSLKPEDTAVYYCNVDARSSYDYWGQGTQVTVSS

>  <MEAS VALUE>
low polyreactivity

$$$$
>  <ENTRY SEQUENCE>
QVQLVESGGCLVQAGGSLRLSCAASGFTFGRYVMGWYRQAPGKERELVAGINQSGGRTNYADSVKGRFTISRDNAKNTVYLQMNSLKPEDTAVYYCAALRSWRKTGGAQRYWYDYWGQGTQVTVSS

>  <MEAS VALUE>
high polyreactivity

$$$$
>  <ENTRY SEQUENCE>
QGQLVESGGGLVQAGGSLRLSCAASGSTYLGNDMAWYIQAPGKERELVATITGSSGSTYYADSVKGRFTISRDNAKNTVYLQMNSLKPEDTAVYYCNTVYNYWDCYDYWGQGTQVTVSS

>  <MEAS VALUE>
low polyreactivity

$$$$
>  <ENTRY SEQUENCE>
QVQLVESGGGLVQAGGSLRLSCAASGRIFTQYAMGWYRPAPGKERELVAAINASDGSTYADSVKGRFTISRDNAKNTVYLQMNSLKPEDPAVYYCNVTGGPYDFTRWSEFDHWGQGTQVTVSS

>  <MEAS VALUE>
low polyreactivity

$$$$
>  <ENTRY SEQUENCE>
QVQLVESGGGLVQAGGSLRLSCAASGPILGQYAMGWYRQAPGKDRELVAAITYSGGRTYYADSVKGRFTLSRDNAKNTVYLQMNSLKPEDTAVYYCAARGRASVERRGGYYYWGQGTQVTVSS

>  <MEAS VALUE>
high polyreactivity

$$$$

---

# PROTOCOL DESCRIPTION: yeast display, Sf9 membrane polyspecificity reagent, FACS + sequencing; frameworks hold sequencing errors

>  <ENTRY SEQUENCE>
QVQLVESGGGLVQAGGSLRLSCAASGSIFLLYAMGWYRQAPGKERELVAAISYSGGATYYADSVKGRFTISRDNAKYTVYLQMNILKPEDTAVYYCAAEAYDDYDYWGQGTQVTVSS

>  <polyreactivity (PSR sort gate)>
low polyreactivity

$$$$
>  <ENTRY SEQUENCE>
QVQLVESGGGLVQAGGSLRLSCAASGSILQRNAMGWYRQAPGKERELVAAISWSGDNTYYADSVKGRFTISRDNAKNTVYLQMNSLKPEDTAVYYCATDADIYFQEYDYWGQGTQVTVSS

>  <polyreactivity (PSR sort gate)>
low polyreactivity

$$$$
>  <ENTRY SEQUENCE>
QVQLVESGGGLVQAGGSLRLSCAASGSIFSPYAMGWYRQAPGKQRELVAAISKTGGSTYYADSVKGRFTISRDNAKNTVYLQMNSLKPEDTAVYYCATQGPRWVRHFDYWGQGTQVTVSS

>  <polyreactivity (PSR sort gate)>
low polyreactivity

$$$$
>  <ENTRY SEQUENCE>
QVQLVESGGGLVQAGGSLRLSCAASGSTFYYYAMGWYRQAPGKERELVAVITRGGGTYYADSVKGRFTISRDNAKNTVYLQMNSLKPEDTAVYYCNARQRSSTRKGYNYWGQGTQVTVSS

>  <polyreactivity (PSR sort gate)>
high polyreactivity

$$$$
>  <ENTRY SEQUENCE>
QVQLVESGGGLVQSGGSLRLTCAASGSIIRYYTMGWYRQAPGKERELVATITQSGGSTYYADSVKGRFTISRDNAKNTVYLQINSLKPEDTAVYYCAALVRRGFRLYGSWGQGTQVTVSS

>  <polyreactivity (PSR sort gate)>
high polyreactivity

$$$$

---

# PROTOCOL DESCRIPTION: yeast display, Sf9 membrane polyspecificity reagent, FACS + sequencing; frameworks hold sequencing errors
OBSERVED PROPERTY: polyreactivity (PSR sort gate)

>  <ENTRY SEQUENCE>
EEELVESGGGLVQAGGSLRLSCAASGSIFVVNAMGWYRQAPGKERELVAAISRGGITNYADSVKGRFTISRDNAKNTVYLQMNSLKPEDTAVYYCNARGSRWVKPERDYWGQGTQVTVSS

>  <OBSERVED PROPERTY>
polyreactivity (PSR sort gate)

>  <MEAS VALUE>
low polyreactivity

$$$$
>  <ENTRY SEQUENCE>
QVQLVESVGGLVQAGGSLRLSCAASGSTFRINAMGWYRQAPGKEMELVADINSGGNTTYADSVKGRFTISRDNAKNTVYLQMNSLKPEDTAVYYCAAEPVFDLWEFLLDYGYDYWGQGTQVTLSS

>  <OBSERVED PROPERTY>
polyreactivity (PSR sort gate)

>  <MEAS VALUE>
low polyreactivity

$$$$

---

# PROTOCOL DESCRIPTION: yeast display, Sf9 membrane polyspecificity reagent, FACS + sequencing; frameworks hold sequencing errors
OBSERVED PROPERTY: polyreactivity (PSR sort gate)

>  <ENTRY SEQUENCE>
QVQLVESGGGLVQAGGSLRLSCAPSGFTFRYNTMAWYRQAPGKERELVAAISSSGSSTYYADSVKGRFTISRDNAKNTVYLQMNSLKPVDTAVYYCNAVHRRTRYGYWGQGTQVTVSS

>  <MEAS VALUE>
high polyreactivity

$$$$
>  <ENTRY SEQUENCE>
QVQLVESGGGLFQAGRSLRLSCAASGITFGYYGMGWYRQAPVKERELVATISQRGGSTYYAVSVKGRFTISRDNAKNTVYLQMNSLKPEDTAFYYSNADAYRYYDYDLLFHYDYWGQGTQVTVSS

>  <MEAS VALUE>
low polyreactivity

$$$$
>  <ENTRY SEQUENCE>
QVQLVESGGGLVQAGGSLRLSCAASGRIFGQYAMGWYRQAPGKERELVAAITYSTGSTSYADSVKGRFTISRDNAKNTVYLQMNSLKPEDTAVYYCATRKPSVRGVIPTRNSYYYWGQGTQVTVSS

>  <MEAS VALUE>
high polyreactivity

$$$$
>  <ENTRY SEQUENCE>
QVQLVESGGGLVQAGGSLRLSCAASRFIFWPYAMGWYRPAPGKERELVAAITTGGSTNYADSVKGRFTISRDNAKNTVYFQMNSLKPEDTAVYYCAKGYYFGYYEFVYWGQGTQVTVSS

>  <MEAS VALUE>
high polyreactivity

$$$$
>  <ENTRY SEQUENCE>
QVQLVESGGGLVQARGSLRLSCAASGITFSRNVMGWYRQAPGKERELVAAISRSGGRTYYADSVKGRFTISRDNAKNTVYLQMNSLKPEVTAVYYCNRDIGGTTVLDDYCGQGTQVTVSS

>  <MEAS VALUE>
low polyreactivity

$$$$
>  <ENTRY SEQUENCE>
QVQLVESGGGLVQAGGSLRLSCAASGRIFYYYAMGWYRQAPGKERELVAAISTDVGGTFYAESVKGRFTISRANAKNTVYLQMNSLKPEDTAVDYCAVEYLWHGDEHDYWGQGTQVTVSS

>  <MEAS VALUE>
high polyreactivity

$$$$
>  <ENTRY SEQUENCE>
QVQLVESGGGLVQAGGSLRLSCAASGRTFVHNAMGWYRQAPGKERELVAVITSGARTTYADSVKGRFTISRDNAKNTVYLQMNSLKPEDTAVYYCAAGTFSVIFSYKYRHYYYWGQGTQVTVSS

>  <MEAS VALUE>
low polyreactivity

$$$$
>  <ENTRY SEQUENCE>
QVQLVESGGGLVQAGGSLRLSCAASGNTFAVNAMGWYRQAPGKERELVAAISKRGGRTYYADSVKGRFTISRDNAKNTVYLQMNSLKPEDTAVYYCAADLSNSMDYWGQGTQVTVSS

>  <MEAS VALUE>
high polyreactivity

$$$$
>  <ENTRY SEQUENCE>
QVQLVESGGGLVQAGGSLRLSCAASGSTFTWNVMGWYRQAPAKERELVASITSGDSTYADSVKGRFTISRDNAKNTVYLQMNSLKPEDTAVYYCNVGYDQEKYGYWGQGTQVTVSS

>  <MEAS VALUE>
low polyreactivity

$$$$
>  <ENTRY SEQUENCE>
QVQLVESGGGLVQAGGSLRLSCAATGRNFAVNAIGWYRQAPGKERELVASIRWSGGGTYYADSVKGRFTISRDNAKNTVYLQMNCLKPEDTAVYYCKALRKTYRLDYWGQGTQVTVSS

>  <MEAS VALUE>
high polyreactivity

$$$$
>  <ENTRY SEQUENCE>
QDQLVESGGGLVQAGGCLRLSCAASGSIFYIYGRGWYRQEPGKERELVAAISRSGGRTYYADSVKGRFTISRDTANNTVYLQMNSLKPEDTAVYYCAARDHYSTGGMNYWGQGTQVTVSS

>  <MEAS VALUE>
high polyreactivity

$$$$
>  <ENTRY SEQUENCE>
QVQLVESGGGLVQAGGSLRLSCAASGYTFPDYAMGWYRQATGKERELVAAIRSGGGTNYADSVKGRFTISRDNAKNTVYLQMNSLKPEDTAVYYCAKEWAGGLYDYWGQGTQVTVSS

>  <MEAS VALUE>
low polyreactivity

$$$$
>  <ENTRY SEQUENCE>
QDQLVETGGGLVQAGGCLRLSCAASGRNFFGYAMGWYRQAPGTERELLAAITQSGGRTYYADSVKGRFTISRDNAKNTVYLLMNSQKPEDTAVYYCAATWLGTRNLVHITLYYWGQGTQVTVSS

>  <MEAS VALUE>
low polyreactivity

$$$$
>  <ENTRY SEQUENCE>
QVQLVESGGGLVQAGGSLRLSCAASGRTFVYYAMGWYRQAPGKERELVATITRGGRTNYADSVKGRFTISRDNAKNTVYLQMNSLKPEDTAVYYCNARYSWWRSRVGSSHRPDGYWGQGTQVTVSS

>  <MEAS VALUE>
high polyreactivity

$$$$
>  <ENTRY SEQUENCE>
QVQLVESGGGLVQAGGSLRLSCAASGRTFYRNPMGWYRQAPAKERELVAANSWSGGRTFYADSVKGRFTISRDNAKNTVYLHMNSMKPEDTAVYYCAKSYTTPGYYRYDYWGQGTQVTVSS

>  <MEAS VALUE>
high polyreactivity

$$$$
>  <ENTRY SEQUENCE>
QVQLVESGGGLVQAGGSLRLSCAASGFIFVRYTMGWYRQAPGKERELVAAISRSSDSTYYADSVKGRFSISRDNAKNTVYLQMNSLKPEVTAVYYCAAFSGFSPFRFYYWGQGTQVTVSS

>  <MEAS VALUE>
high polyreactivity

$$$$
>  <ENTRY SEQUENCE>
QGQHVESGGGLVQAGGSLRLICAASGRIIVHYVMGWYRQAPRKERELVAAISRSGGRTYYADSVKGRFTISRDNAKNTVYLQMNSLKPEDTAVYYCATDASTDKYDYWGQGTQVTVSS

>  <MEAS VALUE>
high polyreactivity

$$$$
>  <ENTRY SEQUENCE>
QVQLVESGGGLVQAGGSLRLSCAASGRIFRINAMGWYRPAPGKERELVAAITRGGSTNYADSVKGRFTISRDNAKNTVYLQMNSLKPEDTAVYYCAADVSTYYYPGWFKLYLFDYWGQGTQVTVSS

>  <MEAS VALUE>
high polyreactivity

$$$$
>  <ENTRY SEQUENCE>
QVQLVESGGGLVQAGGSLRLSCAASGSIFGVNDMGWYRQAPGKERELVAGISSGGSTYYADSVKGRFTISRDNAKNTVYLQMNSLKPEDTAVYYCAKPYYDGRTHFDSWGQGTQVTVSS

>  <MEAS VALUE>
low polyreactivity

$$$$
>  <ENTRY SEQUENCE>
QVQLVESGGGLVQAGGSLRLSCAASGLTFGVNAMGWYRQAPGKERELVAAISGSGGRTNYADSVKGRFTISRDNAKNTVYLQMNSLKPEDTAVYYCNARFPDWALSEISHSTTYGYWGQGTQVTVSS

>  <MEAS VALUE>
low polyreactivity

$$$$
>  <ENTRY SEQUENCE>
QVQLLESGGGLVQAGGSLRLTCAASGFIFDQYGMGWYRQAPGKERELVASITSTGSTYYADSVKGRFTISRDNAKNTVYLQMNSLKPEDTAVYYCATDSYDGMDYWGHGTQVTVSS

>  <MEAS VALUE>
low polyreactivity

$$$$

Numbers sourced from the nanobody polyreactivity screen of Harvey et al. (2022).
